This collection of values is drawn from patent US11021532.

- TGT: SARS-CoV-2 Receptor Binding Domain (RBD) protein (SARS-CoV-2)
- MEASUREMENT PROTOCOL: SPR (Carterra LSA), scFv captured via anti-V5, RBD as analyte, 1:1 fit
Items are presented alongside their recorded kon.
Kindly format the answer as number then unit.

BINDER	VALUE
COVID19_P24_H06 (scFv, V domains shown) VH: EVQLLESGGGLVQPGGSLRLSCAASGFSFSNYDMHWVRQAPGKGLEWVAVISYDGGFKLYADSVKGRFTISRDNAKNSLYLRMNSLRSEDTAVYYCARGQVRGSGPQVVVMDVWGKGTTVTVSS VL: DIQMTQSPSSLSASVGDRVTITCQASQGIRNDLGWYQQKPGKAPKLLIYDASRLQSGVPSRFSGSGSGTDFTLTISSLQPEDFATYYCQQYYSTPPLTFGQGTKVEIKR	120000 M⁻¹ s⁻¹

Using the record for COVID19_P24_F11 (scFv, V domains shown) VH: EVQLLESGGGLVQPGGSLRLSCAASGFTFSGSAMHWVRQAPGKGLEYVSAISRNGGTTYYADSVKGRFTISRDNSKNTLYLQMNSLRAEDTAVYYCAKDGTLITTTLDYWGQGTLVTVSS VL: DIQMTQSPSSLSASVGDRVTITCRASQSIGYYLNWYQQKPGKAPKLLIYAASSLQSGVPSRFSGSGSGTDFTLTISSLQPEDFATYYCQQSYTTPLTFGGGTKVEIKR , report its kon.
616000 M⁻¹ s⁻¹
